The measured values listed here are drawn from patent US20220282271A1.

Parameter estimate b of sigmoidal model y = a/(1 + exp(−(x − x0)/b)) for percent injury values, listed per item
- System: Eleusine indica biotypes (S, R1, R2)
- protocol description: Herbicide rate screening assay (greenhouse, foliar-applied, visual injury)
- Assay type: in vivo
- run conditions: R1 biotype; x = log-transformed herbicide rate (kg/ha); 14 DAT

Take a look at these entries with their results.
compound | result
CC(C)Oc1cc(-n2nc(C(C)(C)C)oc2=O)c(Cl)cc1Cl [Oxadiazon, oxadiazon] | 0.53
CCOC(=O)C(C)OC(=O)c1cc(Oc2ccc(C(F)(F)F)cc2Cl)ccc1[N+](=O)[O-] (stereo not shown) [Lactofen, lactofen] | 0.29
C#CCN1C(=O)COc2cc(F)c(N3C(=O)C4=C(CCCC4)C3=O)cc21 [Flumioxazin, flumioxazin] | 0.04

Lab note: next compound to report on.
Cc1nn(-c2cc(NS(C)(=O)=O)c(Cl)cc2Cl)c(=O)n1C(F)F [Sulfentrazone, sulfentrazone] has a reported Parameter estimate b of sigmoidal model y = a/(1 + exp(−(x − x0)/b)) for percent injury of 0.12
